Assay: Aqueous solubility of compound at pH 7.4
Format: physicochemical
Settings: buffer

structure	solubility, µM
COc1ccc(CNC(=O)c2sc3nnc(C)c(C)c3c2N)cc1F	2.4

###

Assay: Plasma protein binding in rat assessed as unbound fraction incubated for 4 hrs by LC/MS/MS analysis
Type: ADME, cell-free

structure	fraction unbound at 4 h
COc1ccc(CNC(=O)c2sc3nnc(C)c(C)c3c2N)cc1F	0.031

###

Assay: Terminal plasma concentration in rat model of amphetamine-induced hyperlocomotion activity at 1 to 10 mg/kg, po measured after 1.5 hrs
Format: ADME, organism-based
Conditions: dose 1-10 mg/kg
measured-parameter: concentration at 1.5 h (nM)

structure	endpoint-unit	reported-measurement
COc1ccc(CNC(=O)c2sc3nnc(C)c(C)c3c2N)cc1F	nM	1800
